The values you see were collected from paper PMC6225228.

System: Staphylococcus aureus CCM 4516/08
Assay: Antibacterial microdilution broth, SA
Type: cell-based
Conditions: Staphylococcus aureus, CCM4516, 48 h, read-out: MIC SA, 48 h
ASSAY METRIC: MIC

smiles_text=O=C(Nc1cnc(Cl)cn1)c1ccccc1Cl study_system="Staphylococcus aureus CCM 4516/08" experimental_value="62.5 µM"
smiles_text=CCc1ccc(C(=O)Nc2cnc(Cl)cn2)cc1 study_system="Staphylococcus aureus CCM 4516/08" experimental_value="> 125 µM"
smiles_text=COc1ccccc1C(=O)Nc1cnc(Cl)cn1 study_system="Staphylococcus aureus CCM 4516/08" experimental_value="> 125 µM"

* * *

Test system: Staphylococcus aureus H 5996/08 methicillin resistant
Experiment: microbe, parasite or virus in culture
Assay type: cell-based
Conditions: Staphylococcus aureus, MRSA, 24 h, read-out: MIC MRSA
Listed here: items and their measured MIC.
ASSAY METRIC: MIC

compound=O=C(Nc1cnc(Cl)cn1)c1cccc(O)c1 assay_metric=MIC experimental_value="> 500 µM"
compound=COc1ccc(C(=O)Nc2cnccn2)cc1 assay_metric=MIC experimental_value="> 500 µM"
compound=O=C(Nc1cnc(Cl)cn1)c1ccccc1O assay_metric=MIC experimental_value="62.5 µM"
compound=Cc1ccc(C(=O)Nc2cnccn2)cc1 assay_metric=MIC experimental_value="> 500 µM"
compound=O=C(Nc1cnccn1)c1ccc(Cl)cc1 assay_metric=MIC experimental_value="> 125 µM"
compound=CC(=O)Oc1ccc(C(=O)Nc2cnc(Cl)cn2)cc1 assay_metric=MIC experimental_value="> 125 µM"
compound=COc1cccc(C(=O)Nc2cnccn2)c1 assay_metric=MIC experimental_value="> 500 µM"
compound=CC(=O)Oc1cccc(C(=O)Nc2cnc(Cl)cn2)c1 assay_metric=MIC experimental_value="> 125 µM"
compound=O=C(Nc1cncc(Cl)n1)c1ccccc1Cl assay_metric=MIC experimental_value="> 500 µM"
compound=CC(=O)Oc1cccc(C(=O)Nc2cnccn2)c1 assay_metric=MIC experimental_value="> 500 µM"
compound=O=C(Nc1cnccn1)c1ccccc1O assay_metric=MIC experimental_value="> 500 µM"
compound=COc1ccccc1C(=O)Nc1cnccn1 assay_metric=MIC experimental_value="> 500 µM"
compound=COc1ccccc1C(=O)Nc1cncc(Cl)n1 assay_metric=MIC experimental_value="> 500 µM"
compound=O=C(Nc1cnccn1)c1cccc(C(F)(F)F)c1 assay_metric=MIC experimental_value="> 125 µM"
compound="CC1(C)S[C@@H]2[C@H](NC(=O)Cc3ccccc3)C(=O)N2[C@H]1C(=O)O [Pen, benzylpenicillin, reference compound]" assay_metric=MIC experimental_value="125 µM"
compound=COc1cccc(C(=O)Nc2cnc(Cl)cn2)c1 assay_metric=MIC experimental_value="> 500 µM"
compound=O=C(Nc1cnccn1)c1ccccc1Cl assay_metric=MIC experimental_value="> 500 µM"
compound=O=C(Nc1cnc(Cl)cn1)c1cccc(Cl)c1 assay_metric=MIC experimental_value="> 125 µM"
compound=O=C(Nc1cnc(Cl)cn1)c1ccccc1 assay_metric=MIC experimental_value="250 µM"
compound=O=C(Nc1cnc(Cl)cn1)c1ccccc1Cl assay_metric=MIC experimental_value="> 500 µM"
compound=O=C(Nc1cncc(Cl)n1)c1cccc(Cl)c1 assay_metric=MIC experimental_value="> 125 µM"
compound=CC(=O)Oc1ccccc1C(=O)Nc1cnc(Cl)cn1 assay_metric=MIC experimental_value="125 µM"
compound=CCc1ccc(C(=O)Nc2cnccn2)cc1 assay_metric=MIC experimental_value="> 500 µM"
compound=O=C(Nc1cnc(Cl)cn1)c1ccc(Cl)cc1 assay_metric=MIC experimental_value="> 125 µM"
compound=O=C(Nc1cnccn1)c1ccccc1 assay_metric=MIC experimental_value="> 500 µM"
